Sourced from ChEMBL document CHEMBL4265921

- Tested on: RAW264.7
- assay: Antiproliferative activity against mouse RAW264.7 cells assessed as change in cell proliferation at 100 uM after 72 hrs by crystal violet staining based assay relative to control
- Type: functional
experimentalReadout: Activity (%)
Express your answer in %, writing the number without its unit.

Worked examples, 3 molecules total:
O=P(O)(O)C(O)(CCNc1nc(-c2ccccc2)nc2ccccc12)P(=O)(O)O = -30.319
O.O=P(O)(O)C(O)(Cn1ccnc1)P(=O)(O)O [ZOLEDRONIC ACID] = -54.523
O=P(O)(O)C(O)(CCNc1ncc2ccccc2n1)P(=O)(O)O = -52.95

Item "O=P(O)(O)C(O)(CCCCc1ncc2ccccc2n1)P(=O)(O)O" : provide Activity
-50.127

Item "O=P(O)(O)C(O)(CCCNc1ncnc2ccccc12)P(=O)(O)O" : provide Activity
-16.077
